Data origin, for the record: the EternaBench riboswitch data

# apparent Kd per entry
- System: MS2 coat protein
- assay overview: apparent Kd, MS2 coat protein; higher = weaker binding; RNA-MaP array
- particulars: ligand present: flavin mononucleotide; designed as: OFF switch for flavin mononucleotide

primary sequence | tested on | apparent Kd [nM]
ACAUGAGGAUCACCCAUGUGGUCGGCUAUCUACCCAAUGGGCGAGGAUAUCGAGGCAAGAUAAUUCGAGAAGGCGCGUAAGAUA | MS2 coat protein | 47.4
GUCCACGUCCAAGGAUAUAAUACGAUACAUGAGGAUCACCCAUGUAAGGAGUGUAGAGUACGAUGUUAGAAGGUGGCAUUGCAG | MS2 coat protein | 11.1
GGUCCACAUGAGGAUCACCCAUGUAAGGAUAUCCUGUUUUCUGGUUUAGAGUCGCGAAGGAGAAGGUACAUUAA | MS2 coat protein | 41.1
UCACUUGUCUAGAAGGGUCGGCACAUGAGGAUCACCCAUGUAAAUGGCUGGUUCAAAUAAUUUUGACAGGAUAUAGAGAGCACU | MS2 coat protein | 50.4

----------
- Test system: MS2 coat protein
- assay overview: apparent Kd, MS2 coat protein; higher = weaker binding; RNA-MaP array
- particulars: designed as: OFF switch for flavin mononucleotide; no ligand
Reported apparent Kd values for a set of sequences
measurement kind: apparent Kd

primary sequence | measurement kind | val
GGGAGAGAGGUCAGGAUAUUGCGGCGAAAUGCAGUCAAGAAGGGACAUGAGGAUCACCCAUGUACAUCAAGAGC | apparent Kd | 0.00638 µM
AGGAAUAAGACAGGAUAUCGUAAAAUAUAAAACCGAGAAGGGUCACAUGAGGAUCACCCAUGUGUUCCAACGGUGAUCCCUAGA | apparent Kd | 0.0649 µM
CAUCAGAGUGUCAGGAUAUGUUCAAAUAACUCGGGACAGAAGGGACAUGAGGAUCACCCAUGUGCAUAAAUUUA | apparent Kd | 0.0184 µM
CUACUCAUAGGAUAUGAAGCCCGAGACAUGAGGAUCACCCAUGUAUGAUCUACUGUGCGCUCAGAAGGAUGCAGUA | apparent Kd | 0.0239 µM
UAUGUACGUAGGGACAUGAGGAUCACCCAUGUGGUCCGUAUUAGAAGGACGAAUACCGAUAAAACGUAGGAUAUAAUAACUCCG | apparent Kd | 0.134 µM
CGCAAUUCCUGAGGAUAUUGGCAGCGACAUGAGGAUCACCCAUGUGACCAUUUGGUGUUUUGUGUCAAGAAGGCAGCCCAUGAG | apparent Kd | 0.0449 µM
GAUUGAGUUCUAGGAUAUCCAGAGCGGCGUGGGACAUGAGGAUCACCCAUGUGCUCUAUGAUCAUGGAGAAGGAGAACCCCGUU | apparent Kd | 0.0373 µM

----------
A collection of sequences and their measured apparent Kd
- Tested on: MS2 coat protein
- assay overview: apparent Kd, MS2 coat protein; higher = weaker binding; RNA-MaP array
- particulars: designed as: OFF switch for flavin mononucleotide; no ligand
measurement kind: apparent Kd (nM)

primary sequence | measurement kind | measure unit | val
GGUCCACAUGAGGAUCACCCAUGUAAGGAUAUCCUGUUUUCUGGUUUAGAGUCGCGAAGGAGAAGGUACAUUAA | apparent Kd | nM | 22.5
GGCGCGGCAGGAUAUGGAUGACGUGACAUGAGGAUCACCCAUGUGCUUAGAUCAUUCGUACCAGAAGGGCCCGCAG | apparent Kd | nM | 4.29
GGUCGUGAUAAGGAUAUUGGCUGUCGUGCAAUCCAAGAAGGUAUCACAUGAGGAUCACCCAUGUACGCGUGUUG | apparent Kd | nM | 44.1
AUCAAUCUAGGAUAUACAUGAGGAUCACCCAUGUCUUCAACCAAGGGCUCCACGACCUGUAGAAGGAGACAAAA | apparent Kd | nM | 27
GAGCUCCACAAGAAGGGCCGUUGCCCAUGGAAGGACGGCACAUGAGGAUCACCCAUGUUGGCAGGGCAGGAUAUUGCAUUUAUU | apparent Kd | nM | 26
AUCAGUCAAGAAGGAUAUGCAAUAUCCUGGCACGUAGACAUGAGGAUCACCCAUGUGCAGGCUAAGCAGAAGGUCUUAGAAGGU | apparent Kd | nM | 16
UUGCAUUCUAAUCCUCUUACGACAUGAGGAUCACCCAUGUGUCAGGAUAUUCGAGAAGGAGCGACGAAGAAGGGACUAAUACAC | apparent Kd | nM | 40.7
AUUAGGCUGCAGGAUAUGAAUCAUGUAACAAUUUCAGAAGGGCAUACAUGAGGAUCACCCAUGUAGUGAUCCGC | apparent Kd | nM | 109
